Kd: recorded values
Target: T1, cynomolgus monkey DLL3 extracellular domain (ECD) with C-terminal 8xHis tag and Avi tag (cynomolgus monkey, UniProt A0A2K5WSR1 27-490)
T1 construct: extracellular domain; Expressed in Expi293, purified by IMAC and SEC; also called cynoDLL3; cyno DLL3; not shown: Avi tag
T1 sequence: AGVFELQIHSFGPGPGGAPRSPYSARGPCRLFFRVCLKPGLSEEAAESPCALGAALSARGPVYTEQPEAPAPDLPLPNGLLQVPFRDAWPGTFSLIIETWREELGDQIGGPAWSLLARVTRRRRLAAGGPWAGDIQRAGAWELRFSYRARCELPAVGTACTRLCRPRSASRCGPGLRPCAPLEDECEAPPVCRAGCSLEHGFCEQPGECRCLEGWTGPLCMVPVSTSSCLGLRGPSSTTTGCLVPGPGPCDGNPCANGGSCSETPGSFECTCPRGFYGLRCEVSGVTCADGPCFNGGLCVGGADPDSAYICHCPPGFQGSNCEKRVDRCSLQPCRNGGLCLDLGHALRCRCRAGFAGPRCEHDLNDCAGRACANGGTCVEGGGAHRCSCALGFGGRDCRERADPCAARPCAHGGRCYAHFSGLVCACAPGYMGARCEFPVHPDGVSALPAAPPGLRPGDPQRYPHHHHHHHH
Test: SPR (Biacore), 37 C; scFv-Fc captured on chip, cyno DLL3 ECD in solution; 1:1 Langmuir fit
Please give a number only; it is taken to be in nM.

| BINDER | UNITS TEXT | OBSERVED |
| --- | --- | --- |
| 2G1 scFv-Fc fusion (Fc fusion, not shown: a dimerising Fc or GST, scFv-Fc expressed in Expi293) scFv: QLQLQESGPGLVKPSETLSLTCTVSGGSISSSSYYWGWIRQPPGKGLEWIGSIYYSGNIYHNPSLKSRVSISVDTSKNQFSLRLSSVTAADTAVYYCAREIIVGATHFDYWGQGTLVTVSSGGGGSGGGGSGGGGSGGGGSAIQMTQSPSSLSASVGDRVTITCRASQGIRNDLGWYQQKPGKAPELLIYAASSLQSGVPSRFSGSGSGTDFTLTISSLQPEDFATYYCLQDYNYPLTFGPGTKVDIK | nM | 20.5 |

Read off the recorded Kd for 2A6.C5 scFv-Fc fusion (Fc fusion, not shown: a dimerising Fc or GST, scFv-Fc expressed in Expi293) scFv: QVQLQESGPGLVKPSETLSLTCTVSNVSISSYYWSWIRQPPGKGLEWIGYIYYSGTTNYNPSLKSRVTMSVDTSKNQFSLKLSSVTAADTAVYFCARLSNWGFAFDIWGQGTMVTFSSGGGGSGGGGSGGGGSGGGGSEIVLTQSPGTLSLSPGERATLSCRASQTISSSYLAWYQQKPGQAPRLLIYGASSRATGIPDRFSGSGSGTEFTLTISRLEPEDFAVYYCQQYGWSPITFGQGTRLEIK 46.8
